B1: tRNA (parent)
chain: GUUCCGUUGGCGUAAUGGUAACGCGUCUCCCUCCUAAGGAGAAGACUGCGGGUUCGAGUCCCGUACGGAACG

Variants of: B1
Test: yeast fitness relative to wild type (ratio to wild type); higher = fitter; tRNA-Arg(CCU), competitive growth, 37 C, YPD
Variants at the floor of the assay were thinned out.
endpoint-label: yeast fitness

>>> print(df.to_string())
                                   sequence  endpoint_label  result
0  GUUCCGUUGACGUAAUGGUAAAGCGUCUCCCUCCUAAGGAGAAGAAUGCGGGUUCGAGUCCCGUACGGAACG [G10A C22A C46A]   yeast fitness   ≤ 0.5

Give measured yeast fitness for every item shown.
1. GUUCAGUUGGCGUAAUGGUAACGGGUCUCCCUCCUAAGGAGAAGACUGCGGGUUCGAGUCCCGUACGGCACG [C5A C24G A69C]
2. GUUCCGAUGGCGUAAUGAUAACGCGUCUGCCUCCUAGGGAGAAGACUGCGGGUUCGAGUACGGUACGGAACG [U7A G18A C29G A37G C60A C62G]
3. GUUCCGUUGGCGUAAUGGUGACGCGUCUCCCUCUUAAGGUGUAGACUGCGGGUUCGAGUCCCGUACGGAACG [A20G C34U A40U A42U]
4. GUUCCGUUGGCGUAAGGGUAACGCGUCUGCCUCCUAAGGAGAAGACUGGGGGUUCGAGUCCCGUUCGGAACG [U16G C29G C49G A65U]
5. GUUCGGUAGGCGUAAUGGUAACGCGUCUCCCUCCUAAGGACAAGACUGCGGGUUCGAGUCCCAUACGGAACG [C5G U8A G41C G63A]

Resp:
["≤ 0.5", "≤ 0.5", "≤ 0.5", "≤ 0.5", "≤ 0.5"]

Req: Look up yeast fitness: GUUCCGUUGGCGUAAUGGUAACGCGUCUCCCUCCUAUGGAGAAGACUGCGGGUACGAGUCCCGUACGGAACG [A37U U54A]
Resp: ≤ 0.5
